pIC50 by entry:
assay: Inhibition of Aspergillus niger amyloglucosidase
pIC50 (log units): -log10 of the concentration in mol/L.

Here's what some known entries look like.
Molecule: O[C@@H]1[C@H](O)[C@H]2[C@@H](O)CCN2C[C@H]1O
pIC50: 5.10

Molecule: OC[C@H](O)[C@@H]1NC[C@@H]1O
pIC50: 3.98

Molecule: O[C@H]1[C@H](O)[C@@H](O)CN2CC[C@H](O)[C@H]12
pIC50: 5.10

Molecule: O[C@H]1[C@H](O)CN2CCCC[C@H]12 [(-)-LENTIGINOSINE]
pIC50: 4.49

**Query** # query: pIC50 of entry "O[C@H]1CCCN2C[C@H](O)[C@H]12"
**Result** 3.03
